molecular target: recombinant guanylate cyclase reporter cell line (Rattus norvegicus, UniProt P19686+P20595); construct: expressed in transfected cells; test: B-2. Action on recombinant guanylate cyclase reporter cell line; type: cell-based; conditions: MEC = minimal effective concentration; in some cases mean values from individual determinations
Sequence (P20595 whole entry): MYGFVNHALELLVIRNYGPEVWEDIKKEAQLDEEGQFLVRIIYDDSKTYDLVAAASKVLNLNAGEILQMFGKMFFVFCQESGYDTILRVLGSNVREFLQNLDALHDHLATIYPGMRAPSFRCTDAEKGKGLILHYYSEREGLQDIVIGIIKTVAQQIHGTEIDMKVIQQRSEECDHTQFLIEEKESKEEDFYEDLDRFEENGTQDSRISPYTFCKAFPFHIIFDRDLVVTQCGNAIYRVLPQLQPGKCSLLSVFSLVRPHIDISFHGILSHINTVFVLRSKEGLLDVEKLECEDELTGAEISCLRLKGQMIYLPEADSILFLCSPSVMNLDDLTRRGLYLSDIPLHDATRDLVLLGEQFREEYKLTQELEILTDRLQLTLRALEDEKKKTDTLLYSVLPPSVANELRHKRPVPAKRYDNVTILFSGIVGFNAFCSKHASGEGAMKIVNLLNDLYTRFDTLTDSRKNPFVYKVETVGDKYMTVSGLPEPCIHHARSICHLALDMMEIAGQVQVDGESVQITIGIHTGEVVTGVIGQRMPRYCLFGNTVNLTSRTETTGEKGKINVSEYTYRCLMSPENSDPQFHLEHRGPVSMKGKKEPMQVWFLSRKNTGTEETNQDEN
Sequence (P19686 whole entry): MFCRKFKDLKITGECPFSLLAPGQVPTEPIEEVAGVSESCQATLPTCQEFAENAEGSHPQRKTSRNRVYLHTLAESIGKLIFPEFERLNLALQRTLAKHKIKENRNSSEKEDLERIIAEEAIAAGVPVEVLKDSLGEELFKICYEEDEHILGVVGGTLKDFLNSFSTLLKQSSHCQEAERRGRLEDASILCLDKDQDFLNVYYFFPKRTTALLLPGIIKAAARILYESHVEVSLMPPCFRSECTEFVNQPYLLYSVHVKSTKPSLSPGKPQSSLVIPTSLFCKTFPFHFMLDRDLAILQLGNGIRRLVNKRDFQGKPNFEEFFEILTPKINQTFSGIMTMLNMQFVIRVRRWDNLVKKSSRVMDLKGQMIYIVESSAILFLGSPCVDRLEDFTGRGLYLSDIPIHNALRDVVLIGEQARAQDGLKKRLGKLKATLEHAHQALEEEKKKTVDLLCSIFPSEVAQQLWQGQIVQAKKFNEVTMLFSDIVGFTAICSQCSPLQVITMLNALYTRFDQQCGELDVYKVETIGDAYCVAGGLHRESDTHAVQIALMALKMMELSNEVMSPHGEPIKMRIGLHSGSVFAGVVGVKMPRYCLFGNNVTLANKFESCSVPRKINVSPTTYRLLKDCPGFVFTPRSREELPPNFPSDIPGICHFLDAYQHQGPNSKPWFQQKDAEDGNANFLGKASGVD
Attribute Measured: MEC (µM)

Some entries whose results are on file:
CCC(C)(N)CNC(=O)c1c(C)nc2c(OCc3c(F)ccc(OC)c3F)cc(C)cn12 (stereo not shown)
1.00
Cc1nc2c(OCc3c(F)cccc3F)cccn2c1C(=O)NC(C)CN (single isomer, unassigned; enantiomer a) [Example 19]
1.66
CCCC(C)(N)CNC(=O)c1c(C)nc2c(OCc3c(F)cccc3OC)cc(C)cn12 (racemic)
3.00
COCC(C)(N)CNC(=O)c1c(C)nc2c(OCc3c(F)cccc3F)cc(Cl)cn12 (racemic) [Example 159]
0.30
Cc1nc2c(OCc3c(F)cccc3F)cccn2c1C(=O)NCC(C)(C)N
0.30
COc1ccc(CC(C)(CN)NC(=O)c2c(C)nc3c(OCc4c(F)cccc4F)cc(C)cn23)cc1 (racemic)
0.65

I. [2H]C([2H])(Oc1cccn2c(C(=O)NC(CN)c3ccc(F)c(F)c3)c(C)nc12)c1c(F)cccc1F (stereo not shown)
II. Cc1cc(OCc2c(F)cccc2F)c2nc(C)c(C(=O)NCC(C)(N)CO)n2c1 (single isomer, unassigned; enantiomer a) [Example 268]
III. CCC(C)(N)CNC(=O)c1c(C)nc2c(OCc3c(F)cccc3F)cccn12 (racemic)
Put these in order: smallest MEC first, largest last. List each label, following the requested order.
I, III, II
